- Tested on: KELLY cells
- assayText: Secondary validation screen of lethal miRNAs, cell viability
- Format: cell-based
- statedConditions: miRNA mimic alone
Please provide measured Secondary screen Viability (% of control) KELLY for the entries that follow.

INSERT INTO results (substance, result) VALUES
  ('hsa-miR-542-3p (guide UGUGACAGAUUGAUAACUGAAA; chemistry not given here; listed as Homo sapiens)', '20 % of control'),
  ('hsa-miR-552 (guide AACAGGUGACUGGUUAGACAA; chemistry not given here; listed as Homo sapiens)', '2 % of control'),
  ('hsa-miR-892b (guide CACUGGCUCCUUUCUGGGUAGA; chemistry not given here; listed as Homo sapiens)', '3 % of control'),
  ('hsa-miR-101-3p (UACAGUACUGUGAUAACUGAA; chemistry not given here; listed as Homo sapiens)', '7 % of control');

Secondary screen Viability (% of control) KELLY for hsa-miR-148b-5p (AAGUUCUGUUAUACACUCAGGC; chemistry not given here; listed as Homo sapiens) ?
8 % of control
